# CLhep predicted at 1 µM annotations
Assay: Clearance in human liver microsomes at 1 uM after 20 mins in presence of NADPH
Assay type: ADME

Guide cases for CLhep predicted at 1 µM, answers given:
Item NC1=N[C@@]2(CO1)c1cc(-c3cncc(F)c3)ccc1O[C@@H]1COCC[C@H]12 has what recorded CLhep predicted at 1 µM?
9 mL/min/kg

Item NC1=N[C@@]2(CO1)c1cc(-c3cncc(Cl)c3)ccc1O[C@@H]1COCC[C@H]12 has what recorded CLhep predicted at 1 µM?
13 mL/min/kg

Item C[C@]12COCC[C@@H]1[C@]1(COC(N)=N1)c1cc(-c3cncc(Cl)c3)ccc1O2 (racemic) has what recorded CLhep predicted at 1 µM?
15 mL/min/kg

Others:
Item NC1=N[C@@]2(CO1)c1cc(-c3cncc(Cl)c3)ccc1O[C@H]1COCC[C@@H]12 has what recorded CLhep predicted at 1 µM?
15 mL/min/kg

Item N#Cc1cccc(-c2ccc3c(c2)[C@@]2(COC(N)=N2)[C@@H]2CCOC[C@H]2O3)c1 has what recorded CLhep predicted at 1 µM?
8 mL/min/kg

Item NC1=N[C@@]2(CO1)c1cc(-c3cccnc3F)ccc1O[C@@H]1COCC[C@H]12 has what recorded CLhep predicted at 1 µM?
6 mL/min/kg

Item NC1=N[C@@]2(CO1)c1cc(-c3cc(F)cc(Cl)c3)ccc1O[C@@H]1COCC[C@H]12 has what recorded CLhep predicted at 1 µM?
10 mL/min/kg
